# Procedure Text: Firefly Luciferase Counterscreen for Inhibitors of ATXN expression
# Measurement Setup: luminescence; series mostly up to 57.5 µM
Among all 1,400 compounds or so, about 30 (2%) were called active. Another 15% or so got no clear call; they are omitted. Calls come from the whole dose curve; as a rule, active = well fitted inhibition curve with a large enough effect; inconclusive = small, poorly fitted or top-dose-only effect; inactive = flat fitted curve, though single readings scatter. This is one part of a sample in which actives are shown more often than they occur.
Return exactly one item of active, inactive

Input line: Record lookup: outcome of this test for Cc1cc2oc3ccc(NCCC4CCCN4C)cc3c(=O)c2cc1C (configuration not stated) ?
Output line: active

Input line: Entry CN1CCCC1CCOC(C)(c1ccccc1)c1ccc(Cl)cc1 (configuration not stated) : call = ?
Output line: inactive

Input line: Lab log entry: CCc1ccccc1OCC(=O)Nc1nc(-c2cccnc2)cs1 — outcome as called in the assay?
Output line: inactive

Input line: Returns: the outcome recorded for NS(=O)(=O)c1ccc(CCNc2ncnc3c2c(-c2ccccc2)cn3-c2ccc(F)cc2)cc1 in this assay.
Output line: inactive

Input line: Hey, what did the test say about CCn1cc(Cl)c(C(=O)N2N=C(c3ccc4ccccc4c3)CC2c2ccccc2O)n1 (configuration not stated) ?
Output line: inactive

Input line: I would be grateful if you could indicate the recorded call for C=CCc1cccc(/C=N/NC(=O)CCC(=O)Nc2ccc(F)cc2)c1O .
Output line: inactive

Input line: Please indicate how the test categorized Cc1cc2oc3cc(NCCC4CCCN4C)ccc3c(=O)c2cc1C (configuration not stated) .
Output line: active
